# credit: the supplement of paper PMC10011410

# System: U-2 OS
# Assay summary: cell painting activity score (Mahalanobis distance from DMSO wells); higher = stronger morphological phenotype
# Test context: 2.5 µM; 24 h
Outcome measure: cell painting activity score
Keep the answer to the number alone.

# count of solved cases: 3
# Compound, Numeric result
rows = [
    ("C[C@H]1O[C@@H](O[C@H]2CC[C@@]3(C)[C@@H](CC[C@]4(C)[C@@H]3C=C[C@]35OC[C@@]6(CCC(C)(C)C[C@H]63)[C@@H](O)C[C@]54C)[C@]2(C)CO)[C@H](O)[C@@H](O[C@@H]2O[C@H](CO)[C@@H](O)[C@H](O)[C@H]2O)[C@H]1O", 10.6),
    ("CN(N=O)C(=O)N[C@@H]1[C@@H](O)[C@H](O)[C@@H](CO)O[C@@H]1O", 14.4),
    ("CCCCc1c(-c2ccc(OC)cc2)[nH]c2nccnc12", 6.25),
]

# evaluate next
Incoming: Entry "CCN1C(=O)C=CC1=O" : reported cell painting activity score = ?
Outgoing: 7.04

###

Quick list: cell painting activity score per entry.
# Test system: U-2 OS
# Assay summary: cell painting activity score (Mahalanobis distance from DMSO wells); higher = stronger morphological phenotype
# Test context: 1.25 µM; 24 h
Keep the answer to the number alone.

# Compound, cell painting activity score
data = [
    ("C=CC(=O)Nc1cccc(Oc2nc(Nc3ccc(N4CCN(C)CC4)cc3OC)ncc2Cl)c1", 8.25),
    ("CCCCCOc1ccc(/C=C\\c2cccc(O)c2C(=O)O)cc1", 4.75),
    ("CC(C)C[C@H](NC(=O)[C@H](Cc1ccccc1)NC(=O)c1cnccn1)B(O)O", 29.8),
    ("Cc1cc2c(C(C)C)c(O)c(O)c(C=O)c2c(O)c1-c1c(C)cc2c(C(C)C)c(O)c(O)c(C=O)c2c1O", 4.24),
    ("O=C1C(Cl)=C(NCCN2CCOCC2)C(=O)c2ncccc21", 10.4),
]

Incoming: Entry "C=CCNC1=C2C[C@@H](C)C[C@H](OC)[C@H](O)[C@@H](C)/C=C(\C)[C@H](OC(N)=O)[C@@H](OC)/C=C\C=C(/C)C(=O)NC(=CC1=O)C2=O" : reported cell painting activity score = ?
Outgoing: 19.1

Incoming: Also need "CCc1c2c(nc3ccc(OC(=O)N4CCC(N5CCCCC5)CC4)cc13)-c1cc3c(c(=O)n1C2)COC(=O)[C@]3(O)CC.Cl" , thanks.
Outgoing: 8.8

Incoming: Also need "C[C@@]12C(=O)OC(=O)[C@]1(C)[C@H]1CC[C@@H]2O1" , thanks.
Outgoing: 14.1

###

# System: U-2 OS
# Assay summary: relative cell count vs DMSO (cell painting) (fraction of DMSO control); higher = more cells remaining (less cytotoxic)
# Test context: 1.25 µM; 24 h
Quick list: relative cell count per entry.
Keep the answer to the number alone.

# Compound, Assay system, relative cell count
measured = [
    ("CCCCCOc1ccc(/C=C\\c2cccc(O)c2C(=O)O)cc1", "U-2 OS", 0.944),
    ("C[C@@]1(CO)[C@H](O)CC[C@@]2(C)[C@H]1CC[C@H]1C[C@@H]3C[C@@]12CC[C@]3(O)CO", "U-2 OS", 0.788),
    ("CC[C@H](C)[C@@H]1NC(=O)CNC(=O)[C@@H]2Cc3c([nH]c4cc(O)ccc34)S(=O)C[C@H](NC(=O)CNC1=O)C(=O)N[C@@H](CC(=O)O)C(=O)N1C[C@H](O)C[C@H]1C(=O)N[C@@H]([C@@H](C)[C@@H](O)CO)C(=O)N2 (some centres not stated)", "U-2 OS", 0.941),
    ("C=C1[C@@H](C)[C@H]2[C@H](Cc3ccccc3)NC(=O)[C@]23OC(=O)/C=C/[C@H](O)CCC[C@@H](C)C/C=C/[C@H]3[C@@H]1O", "U-2 OS", 0.954),
    ("C=CC(=O)Nc1cc2c(Nc3ccc(F)c(Cl)c3)ncnc2cc1OC", "U-2 OS", 1.06),
    ("CCCC[S@](=N)(=O)CC[C@H](N)C(=O)O", "U-2 OS", 1.04),
]

Incoming: Entry "CCCCCCCCCCCCCCCCCCOP(=O)([O-])OC1CC[N+](C)(C)CC1" : reported relative cell count = ?
Outgoing: 1.03

Incoming: Also need "CCN(CC)Cc1ccc2cc(COC(=O)Nc3ccc(C(=O)NO)cc3)ccc2c1.Cl" , thanks.
Outgoing: 0.654

Incoming: Also need "CC(C)C[C@H](NC(=O)[C@H](Cc1ccccc1)NC(=O)c1cnccn1)B(O)O" , thanks.
Outgoing: 0.172

Incoming: Also need "CC(=O)c1c(O)c(C)c(O)c(Cc2c(O)c3c(c(C(=O)C=Cc4ccccc4)c2O)OC(C)(C)C=C3)c1O" , thanks.
Outgoing: 1.12

Incoming: Also need O=S1(=O)CC(SCc2ccccc2)c2ccccc21 (configuration not stated) , thanks.
Outgoing: 1.12

Incoming: Also need "CCN1CCN(c2ccc3nsnc3c2[N+](=O)[O-])CC1" , thanks.
Outgoing: 0.946
